Numbers sourced from PubChem BioAssay AID1224904.

method.notes: DUX4 transcriptional activity inhibition in cells – 293T cells, Gaussia and Italica luciferase, primary screen (AID 1224904);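 further: 0% = median of neutral control wells and -100% = median of positive control wells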
condition.notes: 293T-iDUX4 ZSCAN4-Gaussia luciferase reporter, 24 h; active compounds read low; concentration not given here
Screen size: about 37,000 compounds; about 290 (0.78%) were called active. Not shown: some 10% with an inconclusive outcome. The full list was thinned out, with actives kept by preference.
quantity: activity change, negative = inhibition (%)

>>> result_value("COc1ccc2c3c([nH]c2c1)[C@@H](CO)N(C(=O)NC(C)C)CC31CN(C(=O)C2CCCC2)C1")
6.7
>>> result_value("COc1ccccc1-c1ccc2n(c1=O)C[C@@H]1[C@@H](CO)[C@H](C(=O)NCc3ccccc3Cl)N[C@H]21")
-0.143
>>> result_value("COC(=O)[C@@H]1[C@@H](CO)[C@@H]2Cn3c(ccc(-c4ccccc4F)c3=O)[C@@H]2N1CC1CCOCC1")
-4.32
>>> result_value("COc1cccc(C(=O)N2C[C@@H]3[C@H](c4ccccc42)[C@H](CO)N3Cc2ccccc2F)c1")
-0.575
>>> result_value("CCCNC(=O)N(C)C[C@@H]1Oc2ncc(C#CCc3ccccc3)cc2C(=O)N([C@@H](C)CO)C[C@H]1C")
5.53
>>> result_value("COc1ccc2c3c([nH]c2c1)[C@@H](CO)N(Cc1cc(F)ccc1F)CC31CN(C(=O)C2CCC2)C1")
-77.2
>>> result_value("C[C@@H](O)C#Cc1ccc([C@@H]2[C@H]3CN(C(=O)c4ccc5c(c4)OCO5)CCCCN3[C@H]2CO)cc1")
1.93
>>> result_value("CS(=O)(=O)N1CCCCN2[C@H](CO)[C@H](c3ccc(-c4cccc(C#N)c4)cc3)[C@H]2C1")
1.86
